Taken from patent US20210388053A1.

Reported kon values for a set of binders
molecular target: canine FcRn/B2M protein complex (canine FcRn ECD with C-terminal poly-His tag and canine Beta-2-Microglobulin) (canine); assay: SPR Biacore 8K, pH 6.0, 25 C; Fc captured by SASA tag on BSA chip, FcRn/B2M 400 nM as analyte
Supply the numeric figure in M⁻¹ s⁻¹, leaving out any unit text.

Please review the following examples before continuing.
[[record]]
binder = "variant canine IgG-B Fc polypeptide Y0R (Leu24Tyr, Asn208Arg) (protein, not shown: small tags and cut ends) CPAPEMLGGPSVFIFPPKPKDTLYIARTPEVTCVVVDLDPEDPEVQISWFVDGKQMQTAKTQPREEQFNGTYRVVSVLPIGHQDWLKGKQFTCKVNNKALPSPIERTISKARGQAHQPSVYVLPPSREELSKNTVSLTCLIKDFFPPDIDVEWQSNGQQEPESKYRTTPPQLDEDGSYFLYSKLSVDKSRWQRGDTFICAVMHEALHRHYTQESLSHSPGK"
readout_name = "kon"
units_text = "M⁻¹ s⁻¹"
result_number = 341000

[[record]]
binder = "variant canine IgG-B Fc polypeptide Y0H (Leu24Tyr, Asn208His) (protein, not shown: small tags and cut ends) CPAPEMLGGPSVFIFPPKPKDTLYIARTPEVTCVVVDLDPEDPEVQISWFVDGKQMQTAKTQPREEQFNGTYRVVSVLPIGHQDWLKGKQFTCKVNNKALPSPIERTISKARGQAHQPSVYVLPPSREELSKNTVSLTCLIKDFFPPDIDVEWQSNGQQEPESKYRTTPPQLDEDGSYFLYSKLSVDKSRWQRGDTFICAVMHEALHHHYTQESLSHSPGK"
readout_name = "kon"
units_text = "M⁻¹ s⁻¹"
result_number = 334000

[[record]]
binder = "variant canine IgG-B Fc polypeptide YYF (Leu24Tyr, Gln83Tyr, Asn208Phe) (protein, not shown: small tags and cut ends) CPAPEMLGGPSVFIFPPKPKDTLYIARTPEVTCVVVDLDPEDPEVQISWFVDGKQMQTAKTQPREEQFNGTYRVVSVLPIGHYDWLKGKQFTCKVNNKALPSPIERTISKARGQAHQPSVYVLPPSREELSKNTVSLTCLIKDFFPPDIDVEWQSNGQQEPESKYRTTPPQLDEDGSYFLYSKLSVDKSRWQRGDTFICAVMHEALHFHYTQESLSHSPGK"
readout_name = "kon"
units_text = "M⁻¹ s⁻¹"
result_number = 271000


Identify measured kon associated with variant canine IgG-B Fc polypeptide YYW (Leu24Tyr, Gln83Tyr, Asn208Trp) (protein, not shown: small tags and cut ends) CPAPEMLGGPSVFIFPPKPKDTLYIARTPEVTCVVVDLDPEDPEVQISWFVDGKQMQTAKTQPREEQFNGTYRVVSVLPIGHYDWLKGKQFTCKVNNKALPSPIERTISKARGQAHQPSVYVLPPSREELSKNTVSLTCLIKDFFPPDIDVEWQSNGQQEPESKYRTTPPQLDEDGSYFLYSKLSVDKSRWQRGDTFICAVMHEALHWHYTQESLSHSPGK
256000
